tested on: HOP-18; assay: NCI tumour cell line growth inhibition, 48 h
Calls of active or inactive are those of the source. No stated cut-off is given here; in the data, active = GI50 up to about 1.1 µM and inactive = higher.
Respond only with the outcome that fits, drawn from true (1) = active, false (0) = inactive

Look over these answered cases.
{"MOLECULE": "O=c1[nH]c(=O)n(C2OC(COP(=O)(O)OP(=O)(O)O)C(O)C2O)cc1F (stereo unspecified)", "EXPERIMENTAL SYSTEM": "HOP-18", "CATEGORY": "false (0)"}
{"MOLECULE": "CCc1ccc(Nc2cc(=O)[nH]c(=S)n2C)cc1", "EXPERIMENTAL SYSTEM": "HOP-18", "CATEGORY": "false (0)"}
{"MOLECULE": "COc1ccc2[nH]c3c(O)nncc3c2c1", "EXPERIMENTAL SYSTEM": "HOP-18", "CATEGORY": "false (0)"}
{"MOLECULE": "Cc1ccccc1NC(=O)CC(=O)n1nc(-c2ccccc2)c(/N=N/c2ccc([N+](=O)[O-])cc2)c1-c1ccccc1", "EXPERIMENTAL SYSTEM": "HOP-18", "CATEGORY": "false (0)"}
{"MOLECULE": "CC(=O)OC1CCCn2c1nc1c2C(=O)C(C)=C(N2CC2)C1=O (stereo unspecified)", "EXPERIMENTAL SYSTEM": "HOP-18", "CATEGORY": "true (1)"}
{"MOLECULE": "Cc1[nH]nc2c1C(=O)C=C(N(CCO)c1ccccc1)C2=O", "EXPERIMENTAL SYSTEM": "HOP-18", "CATEGORY": "false (0)"}

Kindly provide the recorded test outcome for the following molecule: N[C@@H](CSCSC[C@H](N)C(=O)O)C(=O)O
false (0)

Can you look up the reported call for N/C(=N\N=C\c1c[nH]c2ccccc12)Nc1ccccc1 for me?
false (0)

I'd appreciate the recorded outcome for Cc1ccc(C2=C(c3ccccc3)C(=O)C(c3ccccc3)=C2c2ccc(C)cc2)cc1 from this test.
false (0)

Short answer needed: outcome of this test for CCc1nc2ccc(NCCN(C)C)c3c(=O)c4ccccc4n1c23 ?
true (1)

Hi team, can someone confirm the assay call for c1ccc2c(CNCCCCCCNCc3cccc4ccccc34)cccc2c1 ?
false (0)
